# Test System: Cathepsin B1 (EC 3.4.22.1 from bovine spleen) (Bos taurus, UniProt P07688)
# Condition Label: Cathepsin B, 4 h
Numbered stars: 1 amine (or outer) side, 2 acyl side, 3 side chain; on linkers, the order of the positions; unused ones are H or OH. Square brackets hold non-standard residues; d marks the D form. Peptide text beside a SMILES is read from it. * marks the point of attachment. ξ: configuration not given here. Gly(1-amidinopiperidin-4-yl) = N=C(N)N1CCC([C@H](N)C(=O)O)CC1; X1 = CC(C)c1oc([C@H](CO)N[*:1])nc1C(=O)[*:2]; Pro(3R-Ph) = O=C(O)[C@H]1NCC[C@@H]1c1ccccc1; Met(O) = CS(=O)CC[C@H](N)C(=O)O; N(Me)CH2CH2Ph = CN(CCc1ccccc1)*; Tic = O=C(O)[C@@H]1Cc2ccccc2CN1; Cha = N[C@@H](CC1CCCCC1)C(=O)O; ξDisc = O=C(O)C1NCc2ccccc21; Nle = CCCC[C@H](N)C(=O)O; X2 = OCCOCCN(Cc1ccccc1)*
Reported Metric: Stability (Arbitrary units) Cath B 4 h
The reply should be a number in Arbitrary units, with the unit left off.

The examples below pair each entry with its known result.
CSCC[C@H](NC(=O)[C@@H]1Cc2ccccc2CN1C(=O)[C@@H](NC(=O)[C@H](CC1CCCCC1)NC(C)=O)C1CCN(C(=N)N)CC1)C(=O)N(CCOCCO)Cc1ccccc1 [Compound P102, Ac-Cha-Gpg-Tic-Met-N(Bn)CH2CH2OCH2CH2OH] (Ac-[Cha][Gly(1-amidinopiperidin-4-yl)][Tic]M-X2) : 116
CCCC[C@H](NC(=O)C1c2ccccc2CN1C(=O)[C@@H](NC(=O)[C@H](CC1CCCCC1)NC(C)=O)C1CCN(C(=N)N)CC1)C(=O)N1CC[C@H](c2ccccc2)[C@H]1C(=O)N[C@@H](CO)c1nc(C(=O)N(C)C)c(C(C)C)o1 (stereo partly drawn) [Compound P81-1] (Ac-[Cha][Gly(1-amidinopiperidin-4-yl)][ξDisc][Nle][Pro(3R-Ph)][X1]-NMe2) : 105
CSCC[C@H](NC(=O)[C@@H]1Cc2ccccc2CN1C(=O)[C@H](CCCNC(=N)N)NC(=O)[C@H](CC1CCCCC1)NC(C)=O)C(=O)N(C)CCc1ccccc1 [Compound P84, Ac-Cha-Arg-Tic-Met-N(Me)CH2CH2Ph] (Ac-[Cha]R[Tic]M-{N(Me)CH2CH2Ph}) : 69

Continue with the next compound.
Consider the compound CC(=O)N[C@@H](CC1CCCCC1)C(=O)N[C@@H](CCCNC(=N)N)C(=O)N1Cc2ccccc2C[C@H]1C(=O)N[C@@H](CC[S+](C)[O-])C(=O)N1CC[C@H](c2ccccc2)[C@H]1C(=O)N[C@@H](CO)c1nc(C(=O)N(C)C)c(C(C)C)o1 (stereo partly drawn) [Compound P43] (Ac-[Cha]R[Tic][Met(O)][Pro(3R-Ph)][X1]-NMe2) and give its recorded Stability (Arbitrary units) Cath B 4 h.
96

###

# Test System: Cathepsin D (EC 3.4.23.5 from bovine spleen) (Bos taurus, UniProt P80209)
Numbered stars: 1 amine (or outer) side, 2 acyl side, 3 side chain; on linkers, the order of the positions; unused ones are H or OH. Square brackets hold non-standard residues; d marks the D form. Peptide text beside a SMILES is read from it. * marks the point of attachment. Gly(1-amidinopiperidin-4-yl) = N=C(N)N1CCC([C@H](N)C(=O)O)CC1; X1 = CC(C)c1oc([C@H](CO)N[*:1])nc1C(=O)[*:2]; Pro(3R-Ph) = O=C(O)[C@H]1NCC[C@@H]1c1ccccc1; Met(O) = CS(=O)CC[C@H](N)C(=O)O; Tic = O=C(O)[C@@H]1Cc2ccccc2CN1; Cha = N[C@@H](CC1CCCCC1)C(=O)O; Nle = CCCC[C@H](N)C(=O)O; X2 = OCCOCCN(Cc1ccccc1)*
Reported Metric: Stability (Arbitrary units) Cath D 4 h
Output spec: scalar in Arbitrary units, unitless text.

Answer with the recorded Stability (Arbitrary units) Cath D 4 h for the compound listed here: CC(=O)N[C@@H](CC1CCCCC1)C(=O)N[C@H](C(=O)N1Cc2ccccc2C[C@H]1C(=O)N[C@@H](CC[S+](C)[O-])C(=O)N1CC[C@H](c2ccccc2)[C@H]1C(=O)N[C@@H](CO)c1nc(C(=O)N(C)C)c(C(C)C)o1)C1CCN(C(=N)N)CC1 (stereo partly drawn) [Compound P47] (Ac-[Cha][Gly(1-amidinopiperidin-4-yl)][Tic][Met(O)][Pro(3R-Ph)][X1]-NMe2)
99

# return recorded Stability (Arbitrary units) Cath D 4 h for input CC(=O)N[C@@H](CC1CCCCC1)C(=O)N[C@@H](CCCNC(=N)N)C(=O)N1Cc2ccccc2C[C@H]1C(=O)N[C@@H](CC[S+](C)[O-])C(=O)N1CC[C@H](c2ccccc2)[C@H]1C(=O)N[C@@H](CO)c1nc(C(=O)N(C)C)c(C(C)C)o1 (stereo partly drawn) [Compound P43] (Ac-[Cha]R[Tic][Met(O)][Pro(3R-Ph)][X1]-NMe2)
101

Indicate the recorded Stability (Arbitrary units) Cath D 4 h value for this compound: CCCC[C@H](NC(=O)[C@@H]1Cc2ccccc2CN1C(=O)[C@H](CCCNC(=N)N)NC(=O)[C@H](CC1CCCCC1)NC(C)=O)C(=O)N(CCOCCO)Cc1ccccc1 [Compound P98, Ac-Cha-Arg-Tic-Nle-N(Bn)CH2CH2OCH2CH2OH] (Ac-[Cha]R[Tic][Nle]-X2)
104

###

What follows is a record of Stability (Arbitrary units) Cath D 4 h for Cathepsin D (EC 3.4.23.5 from bovine spleen) (Bos taurus).
Numbered stars: 1 amine (or outer) side, 2 acyl side, 3 side chain; on linkers, the order of the positions; unused ones are H or OH. Square brackets hold non-standard residues; d marks the D form. Peptide text beside a SMILES is read from it. * marks the point of attachment. ξ: configuration not given here. Gly(1-amidinopiperidin-4-yl) = N=C(N)N1CCC([C@H](N)C(=O)O)CC1; Tetrahydroisoquinolin(2-yl) = c1ccc2c(c1)CCN(*)C2; X1 = CC(C)c1oc([C@H](CO)N[*:1])nc1C(=O)[*:2]; Pro(3R-Ph) = O=C(O)[C@H]1NCC[C@@H]1c1ccccc1; Tic = O=C(O)[C@@H]1Cc2ccccc2CN1; Cha = N[C@@H](CC1CCCCC1)C(=O)O; ξDisc = O=C(O)C1NCc2ccccc21; Nle = CCCC[C@H](N)C(=O)O; X3 = OCCOCCN*
Respond numerically; units are Arbitrary units and should not be typed.

Annotate the compound CCCC[C@H](NC(=O)[C@@H]1Cc2ccccc2CN1C(=O)[C@@H](NC(=O)[C@H](CC1CCCCC1)NC(C)=O)C1CCN(C(=N)N)CC1)C(=O)N1CC[C@H](c2ccccc2)[C@H]1C(=O)N[C@@H](CO)c1nc(C(=O)N(C)C)c(C(C)C)o1 [Compound P53] (Ac-[Cha][Gly(1-amidinopiperidin-4-yl)][Tic][Nle][Pro(3R-Ph)][X1]-NMe2) with its measured Stability (Arbitrary units) Cath D 4 h.
99

Assign Stability (Arbitrary units) Cath D 4 h to the following record: CSCC[C@H](NC(=O)C1c2ccccc2CN1C(=O)[C@H](CCCNC(=N)N)NC(=O)[C@H](CC1CCCCC1)NC(C)=O)C(N)=O (stereo partly drawn) [Compound P12-1, Ac-Cha-Arg-Disc-Met-NH2] (Ac-[Cha]R[ξDisc]M-NH2)
103

Give the reported Stability (Arbitrary units) Cath D 4 h for this compound. CCCC[C@H](NC(=O)[C@@H]1Cc2ccccc2CN1C(=O)[C@@H](NC(=O)[C@H](CC1CCCCC1)NC(C)=O)C1CCN(C(=N)N)CC1)C(=O)N1CCc2ccccc2C1 [Compound P77] (Ac-[Cha][Gly(1-amidinopiperidin-4-yl)][Tic][Nle]-{Tetrahydroisoquinolin(2-yl)})
95

Look up Stability (Arbitrary units) Cath D 4 h of CCCC[C@H](NC(=O)[C@@H]1Cc2ccccc2CN1C(=O)[C@@H](NC(=O)[C@H](CC1CCCCC1)NC(C)=O)C1CCN(C(=N)N)CC1)C(=O)NCCOCCO [Compound P70, Ac-Cha-Gpg-Tic-Nle-N(H)CH2CH2OCH2CH2OH] (Ac-[Cha][Gly(1-amidinopiperidin-4-yl)][Tic][Nle]-X3) and report it.
112

###

Each entry below carries its reported IC50.
# Test System: DR1 (DRA1*0101 DRB1*0101) (Homo sapiens, UniProt P01903+P01911, A100R/D57E/F55L/F60I/F76Y/I96L/L162R/M171V/P40L/Q125E/R42F/V115G/Y59C)
# Assay Comment: Competitive binding to MHC-II protein DR1
# Condition Label: Protein binding IC50 (nM) 0101, 0101
Square brackets hold non-standard residues; d marks the D form. Peptide text beside a SMILES is read from it. * marks the point of attachment. Tic = O=C(O)[C@@H]1Cc2ccccc2CN1; Cha = N[C@@H](CC1CCCCC1)C(=O)O; X4 = OCCOCCN(CCc1ccccc1)*; Nle = CCCC[C@H](N)C(=O)O; X6 = OCCN(CCc1ccccc1)*
Hi! Could you send only the number? It should be in nM, unit omitted.

Using the record for CSCC[C@H](NC(=O)[C@@H]1Cc2ccccc2CN1C(=O)[C@H](CCCNC(=N)N)NC(=O)[C@H](CC1CCCCC1)NC(C)=O)C(=O)N(CCOCCO)CCc1ccccc1 [Compound P96] (Ac-[Cha]R[Tic]M-X4) , state its measured IC50.
1000

State its IC50 for this molecule: CCCC[C@H](NC(=O)[C@@H]1Cc2ccccc2CN1C(=O)[C@H](CCCNC(=N)N)NC(=O)[C@H](CC1CCCCC1)NC(C)=O)C(=O)N(CCO)CCc1ccccc1 [Compound P81, Ac-Cha-Arg-Tic-Nle-N(CH2CH2OH)CH2CH2Ph] (Ac-[Cha]R[Tic][Nle]-X6)
3300
